experiment: Pharmacokinetic (PK) study, oral gavage, plasma LC-MS/MS; settings: female, Sprague Dawley, rat, po, 10 mg/kg
measurement type: AUC(0-t) (ng·h/mL)

>>> df
                                        mol  unit_of_measure  result
0  Cc1cc(C)cc(C(=O)N(NC(=O)c2ccc3c(c2C)OCCOB3O)C(C)(C)C)c1          ng·h/mL   13200

----------
Listed next: entries and their corresponding EC50.
Biological target: RheoSwitch® (CHO-K1_RS-1 cells, firefly Luciferase reporter) (Choristoneura fumiferana, UniProt O77240)
Sequence (O77240 1-513): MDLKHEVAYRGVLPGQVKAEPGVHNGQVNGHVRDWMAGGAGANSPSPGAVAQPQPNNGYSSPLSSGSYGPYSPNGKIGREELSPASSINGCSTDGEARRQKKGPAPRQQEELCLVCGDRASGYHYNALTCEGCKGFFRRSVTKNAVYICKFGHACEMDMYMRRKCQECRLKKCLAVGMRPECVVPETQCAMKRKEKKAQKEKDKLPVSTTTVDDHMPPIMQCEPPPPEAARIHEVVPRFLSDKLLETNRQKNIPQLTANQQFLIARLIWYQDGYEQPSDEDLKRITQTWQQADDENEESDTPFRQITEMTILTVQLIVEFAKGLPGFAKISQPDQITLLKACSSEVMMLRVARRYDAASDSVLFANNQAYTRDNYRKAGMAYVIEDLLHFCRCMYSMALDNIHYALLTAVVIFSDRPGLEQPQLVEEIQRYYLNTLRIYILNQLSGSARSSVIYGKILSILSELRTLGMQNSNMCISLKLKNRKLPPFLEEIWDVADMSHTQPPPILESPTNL
Experiment: in vitro gene switch assay (fLUC Luciferase expression, potency screen)
Assay type: cell-based
Settings: read-out: fLUC assay EC50, 24 hours with compound, 25 μM to 2.5 pM, figure in parentheses after a value not defined
Description: Gene switch assays are disclosed, e.g., in U.S. Pat. Nos. 8,076,517; 7,456,315; 7,304,161; and 6,258,603. […] The cells were incubated with the compound for 24 hours in a humidified CO2 incubator at 37° C. […] The reagent was incubated with the cells for 10-120 minutes prior to reading on a Molecular Devices Spectramax L luminometer. […]
measurement type: EC50 (µM)

>>> print(df.to_string())
                                    compound  measurement_type  unit_of_measure  result
 0  CCC[C@@H](N(NC(=O)c1c(F)cc(B(O)O)cc1F)C(=O)c1cc(C)cc(C)c1)C(C)(C)C              EC50               µM  0.0857
 1  Cc1cc(C)cc(C(=O)N(NC(=O)c2ccc(B(O)O)c(F)c2)C(C)(C)C)c1              EC50               µM     1.8
 2  [2H]C([2H])([2H])c1cc(C(=O)N(NC(=O)c2ccc3c(c2C)OCCOB3O)[C@@H](CC)C(C)(C)C)cc(C([2H])([2H])[2H])c1              EC50               µM   0.564
 3  Cc1cc(C)cc(C(=O)N(NC(=O)c2cccc(B(O)O)c2F)C(C)(C)C)c1              EC50               µM     0.3
 4  [2H]C([2H])([2H])c1cc(C(=O)N(NC(=O)c2ccc3c(c2F)COB3O)C(C)(C)C)cc(C([2H])([2H])[2H])c1              EC50               µM    3.27
 5  CCC(N(NC(=O)c1cccc(B2OC(C)(C)C(C)(C)O2)c1C)C(=O)c1cc(OC)c(C)c(OC)c1)C(C)(C)C (racemic)              EC50               µM    1.64
 6  CC[C@@H](N(NC(=O)c1cccc(OC)c1C)C(=O)c1cc(C)cc(B2OC(C)(C)C(C)(C)O2)c1)C(C)(C)C              EC50               µM   0.168
 7  CC[C@@H](N(NC(=O)c1ccc2c(c1F)B(O)OC2)C(=O)c1cc(C)cc(C)c1)C(C)(C)C              EC50               µM   0.108
 8  CCC(N(NC(=O)c1cccc(OC)c1C)C(=O)c1cc(OC)cc(B(O)O)c1)C(C)(C)C (racemic)              EC50               µM    2.11
 9  CCC(N(NC(=O)c1cccc(OC)c1C)C(=O)c1cccc(B(O)O)c1)C(C)(C)C (racemic)              EC50               µM    2.88
10  CC[C@@H](N(NC(=O)c1ccc2c(c1F)COB2O)C(=O)c1cc(C)cc(C)c1)C(C)(C)C              EC50               µM   0.309
11  CCC(c1ccccc1)N(NC(=O)c1ccc(B(O)O)cc1F)C(=O)c1cc(C)cc(C)c1 (racemic) [compound 19]              EC50               µM   0.258
12  CCC[C@@H](N(NC(=O)c1ccc(CCCB(O)O)c(OC(F)F)c1C)C(=O)c1cc(C)cc(C)c1)C(C)(C)C              EC50               µM  0.0577
13  CCC(N(NC(=O)c1cccc(OC)c1C)C(=O)c1cc(F)cc(B(O)O)c1)C(C)(C)C (racemic)              EC50               µM     2.6
14  Cc1cc(C)cc(C(=O)N(NC(=O)c2cccc(B(O)O)c2Cl)C(C)(C)C)c1              EC50               µM    1.66
15  CCC[C@@H](N(NC(=O)c1ccc(B(O)O)cc1F)C(=O)c1cc(C)cc(C)c1)C(C)(C)C              EC50               µM   0.064
16  CCC(N(NC(=O)c1ccc2c(c1)B(O)OC2)C(=O)c1cc(C)cc(C)c1)C(C)(C)C (racemic)              EC50               µM   0.432
17  Cc1cc(C)cc(C(=O)N(NC(=O)c2ccc3c(c2C)OCCOB3O)C(c2ccccc2)C(C)(C)C)c1 (racemic)              EC50               µM  0.0659
18  CC[C@@H](N(NC(=O)c1ccc2c(c1)B(O)OC2)C(=O)c1cc(C)cc(C)c1)C(C)(C)C              EC50               µM   0.287
19  [2H]C([2H])([2H])c1cc(C(=O)N(NC(=O)c2ccc3c(c2F)B(O)OC3)[C@H](CC)C(C)(C)C)cc(C([2H])([2H])[2H])c1              EC50               µM   0.123
20  [2H]C([2H])([2H])c1cc(C(=O)N(NC(=O)c2ccc(B(O)O)cc2F)[C@H](CC)C(C)(C)C)cc(C([2H])([2H])[2H])c1              EC50               µM  0.0523
21  Cc1cc(C)cc(C(=O)N(NC(=O)c2ccc(B(O)O)cc2C(C)C)C(C)(C)C)c1              EC50               µM    14.1
22  CCCC(N(NC(=O)c1cccc(B2OC(C)(C)C(C)(C)O2)c1C)C(=O)c1cc(C)cc(C)c1)C(C)(C)C (racemic)              EC50               µM    0.25
23  Cc1cc(C)cc(C(=O)N(NC(=O)c2cccc(B3OC(C)(C)C(C)(C)O3)c2C)C(C)(C)C)c1              EC50               µM    1.42
24  CCC[C@@H](N(NC(=O)c1ccc2c(c1C)OB(O)CCC2)C(=O)c1cc(C)cc(C)c1)C(C)(C)C              EC50               µM  0.0406
25  CC[C@@H](N(NC(=O)c1cccc(OC)c1C)C(=O)c1cc(C)cc(B(O)O)c1)C(C)(C)C              EC50               µM   0.191
26  CCC(CF)N(NC(=O)c1ccc2c(c1C)OCCOB2O)C(=O)c1cc(C)cc(C)c1 (racemic)              EC50               µM    2.61
27  Cc1cc(Cl)cc(C(=O)N(CC(C)(C)C)NC(=O)c2ccc3c(c2C)OCCOB3O)c1              EC50               µM   0.443

The reported numbers originate from patent US9127024B2.
